The reported numbers originate from patent US20240360228A1.

% Blocking for assorted binders
Target: T1, human CCR8 (human, UniProt P51685 1-355)
T1 construct: Native CCR8 on human PBMC (CCR8+ CD3+ or CCR8+ CD4+ lymphocytes); also called chemokine (C-C motif) receptor 8
T1 sequence (P51685 whole entry): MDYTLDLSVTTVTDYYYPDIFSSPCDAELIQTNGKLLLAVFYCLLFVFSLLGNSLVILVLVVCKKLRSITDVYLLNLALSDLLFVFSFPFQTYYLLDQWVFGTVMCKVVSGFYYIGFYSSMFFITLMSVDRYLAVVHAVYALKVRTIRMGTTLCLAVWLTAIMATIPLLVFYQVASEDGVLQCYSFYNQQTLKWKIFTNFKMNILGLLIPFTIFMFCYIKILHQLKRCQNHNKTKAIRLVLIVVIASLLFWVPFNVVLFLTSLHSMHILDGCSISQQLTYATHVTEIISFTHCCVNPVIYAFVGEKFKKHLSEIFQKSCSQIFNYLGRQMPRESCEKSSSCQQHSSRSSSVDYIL
Test: flow blocking, PBMC CCR8+CD3+; competitor PE-AB6
# number only, unit % dropped from output

AB5 (antibody, V domains shown, Hybridoma monoclonal; Same VH/VL entries as AB6; also called antibody 5; clone 5) VH: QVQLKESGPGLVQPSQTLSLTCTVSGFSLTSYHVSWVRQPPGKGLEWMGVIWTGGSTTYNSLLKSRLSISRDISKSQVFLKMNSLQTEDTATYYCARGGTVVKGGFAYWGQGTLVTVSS VL: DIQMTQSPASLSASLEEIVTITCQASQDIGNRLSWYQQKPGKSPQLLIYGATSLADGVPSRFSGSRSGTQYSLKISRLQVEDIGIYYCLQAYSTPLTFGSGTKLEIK :: 37.3

*Q* Report % Blocking for AB10 (antibody, V domains shown, Hybridoma monoclonal; also called antibody 10; clone 10) VH: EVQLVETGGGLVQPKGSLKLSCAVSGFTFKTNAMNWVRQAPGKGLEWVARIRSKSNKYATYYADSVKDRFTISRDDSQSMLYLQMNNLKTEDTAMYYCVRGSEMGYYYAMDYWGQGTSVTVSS VL: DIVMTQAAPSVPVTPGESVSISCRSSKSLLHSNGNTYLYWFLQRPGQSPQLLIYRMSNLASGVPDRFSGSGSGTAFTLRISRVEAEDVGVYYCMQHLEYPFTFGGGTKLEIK please.
*A* -27
